Cited source: patent US6376670B1

Test system: Streptococcus pneumoniae
Experiment: Determination of MIC values (BHI broth, 96 well microtiter plate)
Type: cell-based
Details: Streptococcus pneumoniae; BHI broth, 37° C., about 16 hours; read-out: MIC S. pneu
VALUE KIND: MIC

As a guide, the following entries are already answered.
{"SMILES RECORD": "NCCNC(=O)c1cc(-c2c[nH]c3ccc(Br)cc23)nc2ccc(C#CCN3CC=CCC3)cc12", "MIC": "< 7 µg/mL"}
{"SMILES RECORD": "NCc1ccc(CNC(=O)c2cc(-c3c[nH]c4cc(F)ccc34)nc3cc(F)ccc23)cc1", "MIC": "< 25 µg/mL"}

Entry "CN(C)CCN(C)C(=O)c1cc(-c2c[nH]c3ccc(Br)cc23)nc2ccc(I)cc12" : reported MIC = ?
< 7 µg/mL

Entry "Cc1ccc2[nH]c(C)c(-c3ccc4cccc(C)c4n3)c2c1" : reported MIC = ?
< 25 µg/mL

Entry "COc1ccc2[nH]c(C)c(-c3ccc4cccc(C)c4n3)c2c1" : reported MIC = ?
< 25 µg/mL

Entry "CC(C)CNC(=O)c1cc(-c2c[nH]c3ccc(Br)cc23)nc2ccc(C#CCN3CCCCC3)cc12" : reported MIC = ?
< 7 µg/mL

Entry "NCCCNC(=O)c1cc(-c2c[nH]c3cc(F)ccc23)nc2cc(F)ccc12" : reported MIC = ?
< 25 µg/mL

Entry "O=C(c1cc(-c2c[nH]c3cc(F)ccc23)nc2cc(F)ccc12)N1CCNCC1" : reported MIC = ?
< 25 µg/mL

Entry "NCCNC(=O)c1cc(-c2c[nH]c3ccc(Br)cc23)nc2ccc(C#CCNCCc3ccccc3)cc12" : reported MIC = ?
< 7 µg/mL

Entry "COc1ccc2nc(-c3c(C)[nH]c4ccccc34)ccc2c1" : reported MIC = ?
> 25 µg/mL

Entry "Clc1ccc2c(Cl)cc(-c3c[nH]c4ccc(OCc5ccccc5)cc34)nc2c1" : reported MIC = ?
< 7 µg/mL

Entry "OCc1cc(-c2c[nH]c3ccc(Br)cc23)nc2cc(Cl)c(C#CCN3CCCCC3)cc12" : reported MIC = ?
< 7 µg/mL

----------
Reported MIC values for the following compounds.
System: Streptococcus pneumoniae
Test: Determination of MIC values (BHI broth, 96 well microtiter plate)
Assay type: cell-based
Conditions: Streptococcus pneumoniae; BHI broth, 37° C., about 16 hours; read-out: MIC S. pneu

As a guide, the following entries are already answered.
{"SMILES RECORD": "Cc1cc2ccccc2nc1-c1c[nH]c2ccc(Cl)cc12", "MIC": "< 7 µg/mL"}
{"SMILES RECORD": "Cc1ccc2nc(-c3c[nH]c4ccccc34)ccc2c1", "MIC": "> 25 µg/mL"}
{"SMILES RECORD": "OCc1cc(-c2c[nH]c3ccc(Br)cc23)nc2cc(I)ccc12", "MIC": "< 7 µg/mL"}
{"SMILES RECORD": "OCc1cc(-c2c[nH]c3ccc(Br)cc23)nc2c(Cl)cccc12", "MIC": "< 7 µg/mL"}
{"SMILES RECORD": "Cc1[nH]c2ccccc2c1-c1ccc2cccc(C)c2n1", "MIC": "< 25 µg/mL"}
{"SMILES RECORD": "Cc1ccc2[nH]cc(-c3cc(Cl)c4ccc(Cl)cc4n3)c2c1", "MIC": "< 7 µg/mL"}

Entry "COc1ccc2nc(-c3c(C)[nH]c4ccc(OC)cc34)ccc2c1" : reported MIC = ?
> 25 µg/mL

Entry "NCCNC(=O)c1cc(-c2c[nH]c3ccc(Br)cc23)nc2ccc(C#CCN3CCSCC3)cc12" : reported MIC = ?
< 7 µg/mL

Entry "NCc1cc(-c2c[nH]c3ccc(Br)cc23)nc2cc(Cl)ccc12" : reported MIC = ?
< 7 µg/mL

----------
Test system: methicillin-resistant Staphylococcus aureus (MRSA)
Assay: Determination of MIC values (BHI broth, 96 well microtiter plate)
Assay type: cell-based
Settings: Staphylococcus aureus, MRSA; BHI broth, overnight 37° C.; read-out: MIC MRSA
Reported MIC values for the following compounds.

{"COMPOUND": "NCc1ccc(CNC(=O)c2cc(-c3c[nH]c4c(Br)cccc34)nc3ccccc23)cc1 [Example 261]", "RECORDED MEASUREMENT": "< 25 µg/mL"}
{"COMPOUND": "COc1ccc(NC(=O)CCc2cc(-c3c[nH]c4ccc(Br)cc34)nc3ccc(C#CCN4CCCCC4)cc23)cc1 [Example 266]", "RECORDED MEASUREMENT": "< 7 µg/mL"}

Entry NCc1ccc(CNC(=O)c2cc(-c3c[nH]c4ccc(Br)cc34)nc3cc(Cl)c(C#CCN4CCSCC4)cc23)cc1 [Example 272] : reported MIC = ?
< 7 µg/mL

Entry NCC1CCCC(CNC(=O)c2cc(-c3c[nH]c4ccc(Br)cc34)nc3c(F)cccc23)C1 (centres unmarked) [Example 259] : reported MIC = ?
< 7 µg/mL

Entry Oc1ccc2[nH]cc(-c3ccc4cc(Cl)ccc4n3)c2c1 [Example 205] : reported MIC = ?
< 25 µg/mL

----------
Test system: methicillin-resistant Staphylococcus aureus (MRSA)
Experiment: Determination of MIC values (BHI broth, 96 well microtiter plate)
Type: cell-based
Settings: Staphylococcus aureus, MRSA; BHI broth, overnight 37° C.; read-out: MIC MRSA
VALUE KIND: MIC

{"COMPOUND": "O=C1c2ccccc2C(=O)N1CCCCn1cc(-c2ccc3cc(Cl)ccc3n2)c2ccc(F)cc21 [Example 267]", "MIC": "> 25 µg/mL"}

Entry NCc1ccc(CNC(=O)c2cc(-c3c[nH]c4ccc(Br)cc34)nc3ccc(F)cc23)cc1 [Example 253] : reported MIC = ?
< 7 µg/mL

Entry Cn1cc(-c2cc(C(=O)NCc3ccc(CN)cc3)c3cc(Cl)ccc3n2)c2cc(Br)ccc21 [Example 365] : reported MIC = ?
< 7 µg/mL

----------
System: methicillin-resistant Staphylococcus aureus (MRSA)
Assay: Determination of MIC values (BHI broth, 96 well microtiter plate)
Assay type: cell-based
Settings: Staphylococcus aureus, MRSA; BHI broth, overnight 37° C.; read-out: MIC MRSA
Reported MIC values for the following molecules.

{"MOLECULE": "NCc1cccc(CNC(=O)c2cc(-c3c[nH]c4ccc(Br)cc34)nc3c(Cl)c(Cl)ccc23)c1 [Example 276]", "RECORDED MEASUREMENT": "< 7 µg/mL"}
{"MOLECULE": "O=[N+]([O-])c1cccc2nc(-c3c[nH]c4cc(F)ccc34)ccc12 [Example 388]", "RECORDED MEASUREMENT": "> 25 µg/mL"}
{"MOLECULE": "NCCNC(=O)c1cc(-c2c[nH]c3ccc(Cl)cc23)nc2ccc(Br)cc12 [Example 313]", "RECORDED MEASUREMENT": "< 7 µg/mL"}
{"MOLECULE": "NC1CCCCC1NC(=O)c1cc(-c2c[nH]c3ccc(Br)cc23)nc2c(Cl)c(Cl)ccc12 (stereo not shown) [Example 280]", "RECORDED MEASUREMENT": "< 7 µg/mL"}
{"MOLECULE": "NCC1CCC(CNC(=O)c2cc(-c3c[nH]c4ccc(Cl)cc34)nc3ccc(I)cc23)CC1 (stereo not shown) [Example 226]", "RECORDED MEASUREMENT": "< 25 µg/mL"}

Entry Cc1c(-c2ccc3cc(Cl)ccc3n2)c2ccccc2n1C [Example 215] : reported MIC = ?
< 7 µg/mL

Entry Clc1cc(-c2c[nH]c3cccc(Cl)c23)nc2ccccc12 [Example 341] : reported MIC = ?
< 7 µg/mL

Entry NCc1ccc(CNC(=O)c2cc(-c3c[nH]c4ccc(Br)cc34)nc3c(C#CCN4CCSCC4)cccc23)cc1 [Example 271] : reported MIC = ?
< 7 µg/mL

----------
Test system: Streptococcus pneumoniae
Assay: Determination of MIC values (BHI broth, 96 well microtiter plate)
Assay type: cell-based
Details: Streptococcus pneumoniae; S. pneu; BHI broth, overnight 37° C.; read-out: MIC S. pneu
Reported MIC values for the following compounds.

{"COMPOUND": "Cn1cc(-c2cc(C(=O)NCC3CCC(CN)CC3)c3ccc(F)cc3n2)c2cc(Br)ccc21 (centres unmarked)", "TESTED SYSTEM": "Streptococcus pneumoniae", "RECORDED MEASUREMENT": "< 7 µg/mL"}
{"COMPOUND": "NCCNC(=O)c1cc(-c2c[nH]c3ccc(Br)cc23)nc2cc(Cl)c(C#CCN3CCCCC3)cc12", "TESTED SYSTEM": "Streptococcus pneumoniae", "RECORDED MEASUREMENT": "< 7 µg/mL"}
{"COMPOUND": "NCc1ccc(CNC(=O)c2cc(-c3c[nH]c4ccc(Br)cc34)nc3cc(Cl)c(C#CCN4CCc5ccccc5C4)cc23)cc1", "TESTED SYSTEM": "Streptococcus pneumoniae", "RECORDED MEASUREMENT": "> 25 µg/mL"}
{"COMPOUND": "NCc1ccc(CNC(=O)c2cc(-c3c[nH]c4ccc(Br)cc34)nc3c(Cl)c(Cl)ccc23)cc1", "TESTED SYSTEM": "Streptococcus pneumoniae", "RECORDED MEASUREMENT": "< 25 µg/mL"}
{"COMPOUND": "Brc1ccc2[nH]cc(-c3ccc4cc(I)ccc4n3)c2c1", "TESTED SYSTEM": "Streptococcus pneumoniae", "RECORDED MEASUREMENT": "< 7 µg/mL"}

Entry "CC(C)(C)OC(=O)n1cc(/C=N/c2cccc(Cl)c2)c2cc(Br)ccc21" : reported MIC = ?
> 25 µg/mL

Entry "NCc1cccc(CNC(=O)c2cc(-c3c[nH]c4ccc(Br)cc34)nc3cc(Br)ccc23)n1" : reported MIC = ?
< 7 µg/mL

Entry "Clc1cc(-c2c(-c3ccccc3)[nH]c3ccccc23)nc2ccccc12" : reported MIC = ?
> 25 µg/mL

Entry "NCc1ccc(CNC(=O)c2cc(-c3c[nH]c4ccc(Br)cc34)nc3cc(C#CCNCCc4ccc(Cl)cc4)ccc23)cc1" : reported MIC = ?
< 25 µg/mL

Entry "NCc1ccc(CNC(=O)c2cc(-c3c[nH]c4ccc(Br)cc34)nc3c(C#CCN4CCSCC4)cccc23)cc1" : reported MIC = ?
< 7 µg/mL

Entry "NCc1ccc(CNC(=O)c2cc(-c3c[nH]c4ccc(Br)cc34)nc3cc(F)ccc23)cc1" : reported MIC = ?
< 7 µg/mL

Entry "Clc1cc(-c2c[nH]c3cccc(Cl)c23)nc2ccccc12" : reported MIC = ?
< 7 µg/mL

Entry "NCc1ccc(CNC(=O)c2cc(-c3c[nH]c4ccc(Br)cc34)nc3ccc(F)cc23)cc1" : reported MIC = ?
< 7 µg/mL

Entry "NCCNC(=O)c1cc(-c2c[nH]c3ccc(Br)cc23)nc2c(I)cccc12" : reported MIC = ?
< 7 µg/mL

Entry "O=[N+]([O-])c1cccc2nc(-c3c[nH]c4cc(F)ccc34)ccc12" : reported MIC = ?
> 25 µg/mL

Entry "NCCNC(=O)c1cc(-c2c[nH]c3ccc(Br)cc23)nc2ccc(Br)cc12" : reported MIC = ?
< 7 µg/mL

Entry "NCc1ccc(CNC(=O)c2cc(-c3c[nH]c4ccc(Br)cc34)nc3cc(C#CCN4CCCCC4)ccc23)cc1" : reported MIC = ?
< 7 µg/mL

Entry Cn1cc(-c2cc(C(=O)NCC3CCCC(CN)C3)c3ccc(I)cc3n2)c2cc(Br)ccc21 (centres unmarked) : reported MIC = ?
< 7 µg/mL

Entry "CC(C)(C)OC(=O)n1cc(-c2ccc3cc(I)ccc3n2)c2cc(Br)ccc21" : reported MIC = ?
> 25 µg/mL

Entry "COc1ccc2[nH]cc(-c3cc(Cl)c4ccccc4n3)c2c1" : reported MIC = ?
< 7 µg/mL

Entry "NCCNC(=O)c1cc(-c2c[nH]c3ccc(Br)cc23)nc2cc(Cl)ccc12" : reported MIC = ?
< 7 µg/mL

Entry "Cn1cc(-c2cc(C(=O)NCc3ccc(CN)cc3)c3ccc(F)cc3n2)c2cc(Br)ccc21" : reported MIC = ?
< 7 µg/mL

Entry "Cn1cc(-c2ccc3cc(Cl)ccc3n2)c2cc([N+](=O)[O-])ccc21" : reported MIC = ?
< 7 µg/mL

Entry Cn1cc(-c2cc(C(=O)NCC3CCC(CN)CC3)c3cc(I)ccc3n2)c2cc(Br)ccc21 (centres unmarked) : reported MIC = ?
< 7 µg/mL

Entry "NCCNC(=O)c1cc(-c2c[nH]c3ccc(Br)cc23)nc2c(Cl)cc(I)cc12" : reported MIC = ?
< 7 µg/mL

Entry "Fc1ccc2c(-c3cc(Cl)c4ccccc4n3)c[nH]c2c1" : reported MIC = ?
< 7 µg/mL
